Target: Human NKp46 Fc tag (Acro Biosystems, NC1-H5257) (human), O76036
Sequence (O76036 22-255 limits assumed): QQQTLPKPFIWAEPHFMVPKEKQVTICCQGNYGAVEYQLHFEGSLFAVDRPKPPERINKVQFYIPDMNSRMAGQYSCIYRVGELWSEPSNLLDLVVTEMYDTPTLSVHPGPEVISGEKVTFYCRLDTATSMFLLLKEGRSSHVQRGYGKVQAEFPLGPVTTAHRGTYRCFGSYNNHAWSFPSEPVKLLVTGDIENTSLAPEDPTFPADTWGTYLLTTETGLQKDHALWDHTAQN
Assay: SPR Method 1 and/or 2
Reported Property: pKd
Schema: pKd number; meaning minus log10 of the concentration expressed in molar units.

# Binder, pKd
data = [
    ("ACNLQQACMQTGKVCA (modifications not checked) [BCY19713]", 5.74),
    ("KCNLQAPCMLTGKVCA (modifications not checked) [BCY19695]", 5.62),
    ("ACLLHDHCPNTHPIICA (modifications not checked) [BCY15106]", 5.57),
    ("ACDLATHNCQWGICA (modifications not checked) [BCY18265]", 5.83),
    ("ACLLHEHCPNTHPKMCA (modifications not checked) [BCY15104]", 5.54),
]

I am curious: what pKd value has been reported for ACNLQAACMLTGKVCA (modifications not checked) [BCY18299] ? 5.74

I am curious: what pKd value has been reported for ACNLQQACLHTGKVCA (modifications not checked) [BCY14454] ? 5.56

I am curious: what pKd value has been reported for ACLLHDHCPNSHPEICA (modifications not checked) [BCY15105] ? 5.43
